measured parameter: melting point

Sample records with melting point:
                                   molecule        reading
0           O=[N+]([O-])c1sc2ccc(Cl)cc2c1Br  176 to 178 °C
1  COc1ccc2[nH]nc(N3CCN(C[C@@H](O)COc4cccc(-c5noc6ccsc56)c4)CC3)c2c1    84 to 86 °C
2  CCCCCCCCCCCCC(C(=O)NO)S(=O)(=O)c1ccc(OC)cc1 (configuration not stated)         114 °C
3                     O=C1CNC(=O)N1C1CCNCC1  214 to 217 °C
4     CC(=O)NC1(Cc2ccccc2)CCN(Cc2ccccc2)CC1         134 °C
5  COc1cc(Cl)c(-n2nnc3c(-c4ccccc4C)nc(C)nc32)c(OC)c1  173 to 174 °C

input: Query melting point for CC(=O)OC(COc1ccc(C(=O)O)c(O)c1)c1ccc2c(c1)C(C)(C)CCC2(C)C (configuration not stated)
output: 160 to 161 °C
